tested on: HOP-62 NSCLC; assay: NCI-60 one-dose screen, 48 h (100 = growth as untreated, 0 = no growth, -100 = all killed); conditions: 10 µM
The panel holds about 83,000 compounds, 20% with a hit somewhere; the sample as a whole holds those more often. Activity calls are given as the source filed them. Rule for the calls: active = growth percent below 10; inactive = the rest.
parameter: growth

Name the reported growth value associated with the compound C=CCN(CC=C)C(=O)[C@H](CC)[C@@H]1CC[C@@H](C)[C@@H]([C@H](C)[C@@H](O)[C@@H](C)C(=O)[C@H](CC)C2O[C@]3(C=C[C@@H](O)[C@]4(CC[C@@](C)([C@H]5CC[C@](O)(CC)[C@H](C)O5)O4)O3)[C@H](C)C[C@@H]2C)O1 (stereo partly specified)
12% (inactive)

O=C(Nc1nc(-c2ccccc2)nc2c1sc(=S)n2-c1ccccc1)C(F)(F)F ?
101% (inactive)

S=C(SSC(=S)N(c1ccccc1)c1ccccc1)N(c1ccccc1)c1ccccc1 ?
97.6% (inactive)

CCCN(CCC)C(=O)[C@H](CC)[C@@H]1CC[C@@H](C)[C@@H]([C@H](C)[C@@H](O)[C@@H](C)C(=O)[C@H](CC)C2O[C@]3(C=C[C@@H](O)[C@]4(CC[C@@](C)([C@H]5CC[C@](O)(CC)[C@H](C)O5)O4)O3)[C@H](C)C[C@@H]2C)O1 (stereo partly specified) ?
14.2% (inactive)

COc1cc(-c2ccc(N=Nc3ccc4c(S(=O)(=O)O)ccc(N)c4c3O)c(OC)c2)ccc1N=Nc1ccc2c(S(=O)(=O)O)ccc(N)c2c1O ?
85.9% (inactive)

COc1cc2c(Nc3ccc(-c4ccc(N)cc4)cc3)ncnc2c(OC)c1OC ?
85.9% (inactive)

Cc1ccc2nc(Cl)c(-c3nc4ccccc4o3)cc2c1 ?
92.7% (inactive)

CC[C@@H](C(=O)[C@@H](C)[C@@H](O)[C@H](C)[C@@H]1O[C@@H]([C@@H](CC)C(=O)N(CC)CC)CC[C@@H]1C)C1O[C@]2(C=CC(=O)[C@]3(CC[C@@](C)([C@H]4CC[C@](O)(CC)[C@H](C)O4)O3)O2)[C@H](C)C[C@@H]1C (stereo partly specified) ?
31.7% (inactive)

CS(=O)(=O)c1nccc(-c2c(-c3ccc(OCCc4ccccc4)cc3)nc3sccn23)n1 ?
104% (inactive)

COc1ccc(-c2cc(-c3ccccc3)nc(SCCCCCCC(=O)NO)n2)cc1 ?
57.2% (inactive)

O=C1CC(SC(=S)C2CCCC2=O)C(=O)N1 (stereo unspecified) ?
106% (inactive)

Fc1ccc(C(c2ccc(F)cc2)C(Cl)Cl)cc1 ?
115% (inactive)

O=C1CSC(=S)N1/N=C/c1ccc(Cl)s1 ?
95.4% (inactive)

COc1cc2cc(Oc3ccc(NC(=O)c4ccc(Cl)c(C(F)(F)F)c4)cc3)c(C)nc2cc1OC ?
73.1% (inactive)

COc1ccc(C(=O)N/N=C/c2cc(C(F)(F)F)ccc2Cl)cc1 ?
107% (inactive)

Cc1ccc(C(=O)/C=C/c2ccccc2)s1 ?
120% (inactive)

###

system: DU-145 prostate; experiment: NCI-60 one-dose screen, 48 h (100 = growth as untreated, 0 = no growth, -100 = all killed); settings: 10 µM
The panel holds about 83,000 compounds, 20% with a hit somewhere; the sample as a whole holds those more often.
parameter: growth (%)
Express it in %; write the number only.

Param readout = growth; param system = DU-145 prostate; param query = Cc1cccc(N=Cc2ccccc2O)c1C ; response: value
126

CCn1c(SCCc2ccccc2)nnc1-c1nn(-c2ccc(Cl)cc2Cl)c(-c2ccc(Cl)cc2)c1C ?
84.7

Nc1cc(-c2ccncc2)c[nH]c1=O ?
110

N#CC1=CC2CN(Cc3ccccc3)C1C1C(=O)N(c3ccccc3)C(=O)C21 (stereo not given) ?
105

CCc1c2c(nc3ccc(OC(=O)N4CCC(N5CCCCC5)CC4)cc13)-c1cc3c(c(=O)n1C2)COC(=O)[C@]3(O)CC ?
-5.72
